TEST SYSTEM: DN-III quality control recombinant protein (produced by Fapon Biotech InC.) (dengue virus)
METHOD SUMMARY: BLI, AMC sensor, antibody captured
Collected koff values appear next to each entry.
ASSAY METRIC: koff (s⁻¹)

BINDER	ASSAY METRIC	UNIT DESCRIPTOR	VALUE OBSERVED
Mutation 1-29 (antibody, V domains shown) VH: EVQLQQSGTELVRPGALVKLSCKASGFNIKDYYLHWVKQRPRQGLEWIGWIDPENGKTIYDPKFQDKASITSDTSTNTAYLQLRSLTSEDTAVYYCVSAYYRFVYWGQGTLVTVSA VL: QIVLTQSPAIMSAFPGERVTMTCSASTSVRYMYWHQQKPGSSPRLLIYDTSNVASGVPVRFSGSGSGTSYSLTISRDEAMDAATYYCQQWSSYPRTFGGGTKLEIKR	koff	s⁻¹	3.23e-05
WT 1-20 (antibody, V domains shown) VH: EVQLQQSGTELVRPGALVKLSCKASGFNIKEYYIHWVKQRPRQGLEWIGWIDPDNGKTLYDPKVQDKASITSDTSTNTAYLQLRSLTSEDTAVYYCVSAYFRFVYWGQGTLVTVSA VL: QIVLTQSPAIMSAFPGERVTMTCSASSSVKYMYWHQQKPGSSPRLLIYETSNIASGFPVRFSGSGSGTSYSLTISRDEAMDAATYYCQQQSSYPRTFGGGTKLEIKR	koff	s⁻¹	1.64e-05
Mutation 1-16 (antibody, V domains shown) VH: EVQLQQSGTELVRPGALVKLSCKASGFNIKDYYIHWVKQRPRQGLEWIGWIDPENGKTLYDPKFQDKASITSDTSTNTAYLQLRSLTSEDTAVYYCVSAYVRFVYWGQGTLVTVSA VL: QIVLTQSPAIMSAFPGERVTMTCSASSSVRYMYWHQQKPGSSPRLLIYDTSNVASGVPVRFSGSGSGTSYSLTISRDEAMDAATYYCQQWSSYPRTFGGGTKLEIKR	koff	s⁻¹	3.04e-05
